experimental-system: NAD-dependent protein deacetylase sirtuin-2 (Homo sapiens) (UniProt Q8IXJ6)
Sequence (Q8IXJ6 whole entry, the tested form may be a part): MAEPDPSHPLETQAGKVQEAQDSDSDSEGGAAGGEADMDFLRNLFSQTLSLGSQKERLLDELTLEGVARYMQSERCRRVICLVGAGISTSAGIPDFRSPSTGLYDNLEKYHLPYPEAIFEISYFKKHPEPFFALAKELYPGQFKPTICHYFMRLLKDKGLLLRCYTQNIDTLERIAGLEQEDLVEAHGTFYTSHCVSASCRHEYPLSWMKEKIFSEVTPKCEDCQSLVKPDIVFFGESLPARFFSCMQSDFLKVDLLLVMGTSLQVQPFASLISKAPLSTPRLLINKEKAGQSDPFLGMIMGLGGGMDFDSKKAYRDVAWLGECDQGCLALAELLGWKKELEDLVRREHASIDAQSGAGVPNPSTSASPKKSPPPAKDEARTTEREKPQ
protocol-summary: Inhibition of recombinant human C-terminal His-tagged SIRT2 (13 to 319 residues) using human p53 derived peptides as substrate at 50 uM incubated for 45 mins by fluorescence assay
inhibition below 50% gives NO; inhibition at or above it gives YES.

Some entries whose results are on file:
• CCOC(=O)c1ccc2[nH]c(-c3ccc(OC)cc3)nc2c1 = NO
• CCOC(=O)c1ccc2[nH]c(-c3ccccc3)nc2c1 = NO
• CCOC(=O)c1ccc2[nH]c(-c3ccc(N4CCOCC4)cc3)nc2c1 = YES
• CCOC(=O)c1ccc2[nH]c(-c3ccc(N4CCCCC4)cc3)nc2c1 = YES
• CCOC(=O)c1ccc2[nH]c(-c3ccc(O)cc3)nc2c1 = NO

// query Test whether the molecule CCOC(=O)c1ccc2[nH]c(-c3ccc(C)cc3)nc2c1 records inhibition of 50% or higher.
// result NO

// query Test whether the molecule CCOC(=O)c1ccc2[nH]c(-c3ccc(N(C)C)cc3)nc2c1 records inhibition of 50% or higher.
// result YES
